target: T1, IL-1β (UniProt P01584 117-269); assay: Biacore, periplasmic extract
T1 construct: Antigen immobilised on the Biacore chip
Note to self: values exactly at 1 fold are 1. So fold difference in affinity vs original at or above 1 fold is 1, below is -1.

Answer whether fold difference in affinity vs original of XPA23 light chain S93N (Fab, V domains shown) VH: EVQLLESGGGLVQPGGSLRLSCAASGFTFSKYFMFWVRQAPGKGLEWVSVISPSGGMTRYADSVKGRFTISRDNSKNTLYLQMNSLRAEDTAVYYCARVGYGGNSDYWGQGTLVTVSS VL: DIQMTQSPSSVSASVGDRLTIICRASQDINRWLAWYQQTPGNAPKLLIHSATSLQSGVPSRFSGSGSGTDFTLTINSLQPEDFATYYCQQADNFPLTFGGGTKVEIK is greater than or equal to 1 fold. 1

Answer whether fold difference in affinity vs original of XPA23 light chain R31N (Fab, V domains shown) VH: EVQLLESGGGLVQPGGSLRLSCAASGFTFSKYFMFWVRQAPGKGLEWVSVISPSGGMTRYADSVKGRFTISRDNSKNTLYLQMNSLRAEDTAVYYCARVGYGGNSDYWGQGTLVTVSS VL: DIQMTQSPSSVSASVGDRLTIICRASQDINNWLAWYQQTPGNAPKLLIHSATSLQSGVPSRFSGSGSGTDFTLTINSLQPEDFATYYCQQADSFPLTFGGGTKVEIK is greater than or equal to 1 fold. -1

Answer whether fold difference in affinity vs original of XPA23 light chain T52E (Fab, V domains shown) VH: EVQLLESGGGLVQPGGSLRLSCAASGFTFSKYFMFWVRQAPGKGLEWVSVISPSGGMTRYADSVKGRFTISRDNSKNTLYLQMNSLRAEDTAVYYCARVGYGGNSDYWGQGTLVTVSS VL: DIQMTQSPSSVSASVGDRLTIICRASQDINRWLAWYQQTPGNAPKLLIHSAESLQSGVPSRFSGSGSGTDFTLTINSLQPEDFATYYCQQADSFPLTFGGGTKVEIK is greater than or equal to 1 fold. -1

Answer whether fold difference in affinity vs original of XPA23 light chain D28F (Fab, V domains shown) VH: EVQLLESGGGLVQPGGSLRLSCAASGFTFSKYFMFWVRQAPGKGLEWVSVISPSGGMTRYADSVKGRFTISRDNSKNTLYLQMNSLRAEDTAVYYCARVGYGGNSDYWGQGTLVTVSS VL: DIQMTQSPSSVSASVGDRLTIICRASQFINRWLAWYQQTPGNAPKLLIHSATSLQSGVPSRFSGSGSGTDFTLTINSLQPEDFATYYCQQADSFPLTFGGGTKVEIK is greater than or equal to 1 fold. 1

Answer whether fold difference in affinity vs original of XPA23 light chain N30F (Fab, V domains shown) VH: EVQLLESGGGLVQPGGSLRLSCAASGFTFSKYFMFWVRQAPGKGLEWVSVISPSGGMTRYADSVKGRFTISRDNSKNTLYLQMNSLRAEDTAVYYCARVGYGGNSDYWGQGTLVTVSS VL: DIQMTQSPSSVSASVGDRLTIICRASQDIFRWLAWYQQTPGNAPKLLIHSATSLQSGVPSRFSGSGSGTDFTLTINSLQPEDFATYYCQQADSFPLTFGGGTKVEIK is greater than or equal to 1 fold. 1
